Source of measurements: the RNAGym collection of RNA variant scans (doi:10.7554/elife.90254)

B1: OR4K15 (parent)
chain: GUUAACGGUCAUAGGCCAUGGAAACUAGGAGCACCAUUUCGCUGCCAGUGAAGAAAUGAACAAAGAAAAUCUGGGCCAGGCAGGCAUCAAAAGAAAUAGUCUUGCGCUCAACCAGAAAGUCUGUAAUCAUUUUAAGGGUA

variants of: B1; assay: self-cleavage, relative activity (ratio to wild type); higher = more cleavage; in vitro, sequencing; the parent is a self-cleaving ribozyme
Tag: 1 (yes) if measured self-cleavage is not below 1, 0 (no) if it is.

- variant-description: "U72C G106A"
  label: "0 (no)"
- variant-description: "U87C U108G"
  label: "0 (no)"
- variant-description: "A30G U133C"
  label: "1 (yes)"
- variant-description: "A11G A86U"
  label: "1 (yes)"
- variant-description: "A30G G31A"
  label: "1 (yes)"
- variant-description: "A63U A91U"
  label: "1 (yes)"
- variant-description: "A30U A47U"
  label: "0 (no)"
- variant-description: "A33G U72A"
  label: "0 (no)"
- variant-description: "A86G C112A"
  label: "0 (no)"
- variant-description: "U26C A92G"
  label: "1 (yes)"
- variant-description: "A55U U131C"
  label: "1 (yes)"
- variant-description: "C112G A135U"
  label: "0 (no)"
- variant-description: "U2A G65A"
  label: "0 (no)"
- variant-description: "A52G C88A"
  label: "1 (yes)"
- variant-description: "U39A A94C"
  label: "1 (yes)"
- variant-description: "U120C G136A"
  label: "1 (yes)"
- variant-description: "U43A U139G"
  label: "1 (yes)"
- variant-description: "A36U U120A"
  label: "1 (yes)"
- variant-description: "A27G A64G"
  label: "1 (yes)"
- variant-description: "A51C U57G"
  label: "1 (yes)"
- variant-description: "A22G U49G"
  label: "1 (yes)"
- variant-description: "A18G U120C"
  label: "1 (yes)"
- variant-description: "A55G A64U"
  label: "1 (yes)"
- variant-description: "A22G U132G"
  label: "1 (yes)"
- variant-description: "U72C A111G"
  label: "0 (no)"
- variant-description: "C34U G123A"
  label: "1 (yes)"
- variant-description: "C46A A60U"
  label: "1 (yes)"
- variant-description: "U39C U122A"
  label: "1 (yes)"
- variant-description: "A11U A91G"
  label: "0 (no)"
- variant-description: "A54G A68U"
  label: "1 (yes)"
- variant-description: "A69G A96G"
  label: "1 (yes)"
